Values compiled from patent US20240150440A1.

Please respond with reported IC50 for every item in the list.
Target: recombinant SARS-CoV-2 RBD with C-terminal AviTag (SARS-CoV-2, UniProt P0DTC2 319-541)
Assay: ELISA, competition with coated ACE2-Fc for RBD [Cont. 2]
Give just the numeric value; nM need not be written.

Q. Identify the reported IC50 for the following entry. PP1136 MBP-4B0F-PAPA-R5a-C5-H6 (VHH, Form: Heptamer) VHH: QVQLVESGGGLVQPGGSLRLSCAASGDIFSINALHWFRQAPGKQREEVAAITSGGSTGYADSVKGRFTISRDNAKNTVYLQMNSLKPEDTAVYYCAAQQARGGLDSDYWGQGTQVTVSS
A. 1.8

Q. Identify the reported IC50 for the following entry. PP1148 MBP-5HVZ-PAPA-R5a-C5-H6 (VHH, Form: Dimer) VHH: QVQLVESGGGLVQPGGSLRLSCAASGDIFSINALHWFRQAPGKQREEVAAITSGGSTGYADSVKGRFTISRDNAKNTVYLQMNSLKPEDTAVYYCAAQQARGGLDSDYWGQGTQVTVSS
A. 1.1

Q. Identify the reported IC50 for the following entry. PP1149 MBP-5HVZ-PAPA-R5a-E5-H6 (VHH, Form: Dimer) VHH: QVQLVESGGGLVQPGGSLRLSCAASGYDFDILRMAWFRQAPGKEREMVAAITSAESVNYEDSVKGRFTISRDNAKNTVYLQMNSLKPEDTAVYYCATYDYTDDYGYASWGQGTQVTVSS
A. 14.2

Q. Identify the reported IC50 for the following entry. PP1160 MPB-scTRP-PAPA-R5a-C5-H6 (VHH, Form: Trimer) VHH: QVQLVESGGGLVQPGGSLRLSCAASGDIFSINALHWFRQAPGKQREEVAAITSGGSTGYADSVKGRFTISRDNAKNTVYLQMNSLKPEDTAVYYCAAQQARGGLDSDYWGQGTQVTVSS
A. 2.9
